molecular target: MPXV E8L ectodomain, His-tagged recombinant protein (mpox virus (MPXV), isolate MPXV_USA_2022_MA001); test: SPR; BiaCore T200; […]; 1:1 binding model
Quick reference for pKd among some binders
On this scale, pKd is minus log10 of a concentration expressed in M (mol/L).

[
  {
    "binder": "Nanobody E8L-06 (VHH) VHH: QVQLVESGGGLVQAGGSLRLSCAASGFIFTSTRMGWYRQAPGKEREFVAGISIGGNTNYADSVKGRFTISRDNAKNTVYLQMNSLKPEDTAVYYCAARYYYFHNHNFAYDYWGQGTQVTVSS",
    "observedMeasurement": 7.94
  },
  {
    "binder": "Nanobody E8L-04 (VHH) VHH: QVQLVESGGGLVQAGGSLRLSCAASGRIFGRRAMGWYRQAPGKEREFVAAISNGFNTNYADSVKGRFTISRDNAKNTVYLQMNSLKPEDTAVYYCAATVSRRGEQTFFYDYWGQGTQVTVSS",
    "observedMeasurement": 8.75
  }
]

Form field: reported pKd of Nanobody E8L-03 (VHH) VHH: QVQLVESGGGLVQAGGSLRLSCAASGFIFTTRGMGWYRQAPGKEREFVACIFPGSSTNYADSVKGRFTISRDNAKNTVYLQMNSLKPEDTAVYYCAAEGPYRGFNFKKNLYDYWGQGTQVTVSS 8.24

GET /values?readout=pKd&item= Nanobody E8L-02 (VHH) VHH: QVQLVESGGGLVQAGGSLRLSCAASGRIFTDSYMGWYRQAPGKEREFVACITTGSSTYYADSVKGRFTISRDNAKNTVYLQMNSLKPEDTAVYYCAARFRYTVQHWFHTKFDYWGQGTQVTVSS 8.77

// lookup pKd for Nanobody E8L-05 (VHH) VHH: QVQLVESGGGLVQAGGSLRLSCAASGRIFDTVEMGWYRQAPGKEREFVASISGGDSTYYADSVKGRFTISRDNAKNTVYLQMNSLKPEDTAVYYCAARSARNRWSIIFYDYWGQGTQVTVSS 8.62

Find the recorded pKd belonging to Nanobody E8L-01 (VHH) VHH: QVQLVESGGGLVQAGGSLRLSCAASGRIFINRVMGWYRQAPGKEREFVAGIAQGGSTNYADSVKGRFTISRDNAKNTVYLQMNSLKPEDTAVYYCAAKFWNWHHDHRGYDYWGQGTQVTVSS and report it. 9.18

# query: pKd of entry Nanobody E8L-08 (VHH) VHH: QVQLVESGGGLVQAGGSLRLSCAASGFIFTNWGMGWYRQAPGKERELVAAITSGSSTNYADSVKGRFTISRDNAKNTVYLQMNSLKPEDTAVYYCAAIRGFSLIYQFFAQYDYWGQGTQVTVSS 8.51

GET /values?readout=pKd&item= Nanobody E8L-07 (VHH) VHH: QVQLVESGGGLVQAGGSLRLSCAASGSIFKRYKMGWYRQAPGKEREFVACINKGGDTNYADSVKGRFTISRDNAKNTVYLQMNSLKPEDTAVYYCAVKRHAKAYGEFFYDYWGQGTQVTVSS 8.50

Entry source: paper PMC11937253
